Entry source: ChEMBL document CHEMBL1140354

Test system: BGC-823
ASSAY: In vitro antitumor activity against humanBGC-823 tumor cell line
Format: functional, cell-based
MEASUREMENT_PARAMETERS: Homo sapiens
ENDPOINT_NAME: IC50
Dear colleague, please send the value followed by its unit.

Look up IC50 of "Cc1c(N)nc([C@H](CC(N)=O)NC[C@H](N)C(N)=O)nc1C(=O)N[C@H](C(=O)N[C@H](C)[C@@H](O)[C@H](C)C(=O)N[C@H](C(=O)NCCc1nc(-c2nc(C(=O)NCCCNCCCCNC(=O)[C@H](N)C(C)C)cs2)cs1)[C@@H](C)O)[C@@H](O[C@@H]1O[C@@H](CO)[C@@H](O)[C@H](O)[C@@H]1O[C@H]1O[C@H](CO)[C@@H](O)[C@H](OC(N)=O)[C@@H]1O)c1c[nH]cn1" and report it.
800 nM

Read off the recorded IC50 for "Cc1c(N)nc([C@H](CC(N)=O)NC[C@H](N)C(N)=O)nc1C(=O)N[C@H](C(=O)N[C@H](C)[C@@H](O)[C@H](C)C(=O)N[C@H](C(=O)NCCc1nc(-c2nc(C(=O)NCCCNCCCCNC(=O)[C@H](CCCCN)NC(=O)[C@@H](CC(C)C)NC(=O)[C@@H](N)C(C)C)cs2)cs1)[C@@H](C)O)[C@@H](O[C@@H]1O[C@@H](CO)[C@@H](O)[C@H](O)[C@@H]1O[C@H]1O[C@H](CO)[C@@H](O)[C@H](OC(N)=O)[C@@H]1O)c1c[nH]cn1"
600 nM
